# experiment summary: Examination of solubilizing agent: solubility of SUN N8075 (Test example 1)
# Format: physicochemical
# recorded conditions: phosphate-buffered saline with solubilizing agent, 24 °C, pH 6.9, aqueous with cosolvent or surfactant or cyclodextrin, kinetic from dmso stock, β-Cyclodextrin 0.1%; pH 6.9; read-out: Concentration (solubility of SUN N8075)
metric name: solubility at 30 min (µg/mL)

>>> print(df.to_string())
                           substance_smiles  units_symbol  recorded_measurement
0  Cc1cc(OC[C@@H](O)CN2CCN(c3ccc(Cc4ccc(F)cc4)cc3)CC2)c(C)c(C)c1N         µg/mL                    26

###

# experiment summary: Examination of solubilizing agent: solubility of SUN N8075 (Test example 1)
# Assay type: physicochemical
# recorded conditions: phosphate-buffered saline with solubilizing agent, 24 °C, pH 6.8, aqueous with cosolvent or surfactant or cyclodextrin, kinetic from dmso stock, HCO-60 0.5%; pH 6.8; read-out: Concentration (solubility of SUN N8075)
metric name: solubility at 30 min (µg/mL)

>>> df
                                   compound           metric_name  recorded_measurement
0  Cc1cc(OC[C@@H](O)CN2CCN(c3ccc(Cc4ccc(F)cc4)cc3)CC2)c(C)c(C)c1N [SUN N8075]  solubility at 30 min                   395

###

# experiment summary: Examination of solubilizing agent: solubility of SUN N8075 (Test example 1)
# Type: physicochemical
# recorded conditions: phosphate-buffered saline with solubilizing agent, 24 °C, pH 6.8, aqueous with cosolvent or surfactant or cyclodextrin, kinetic from dmso stock, Tween80 1.0%; pH 6.8; read-out: Concentration (solubility of SUN N8075)
metric name: solubility at 30 min (µg/mL)

                           substance_smiles  units_symbol  recorded_measurement
0  Cc1cc(OC[C@@H](O)CN2CCN(c3ccc(Cc4ccc(F)cc4)cc3)CC2)c(C)c(C)c1N         µg/mL                  1820

###

# experiment summary: Examination of solubilizing agent: solubility of SUN N8075 (Test example 1)
# Format: physicochemical
# recorded conditions: phosphate-buffered saline with solubilizing agent, 24 °C, pH 6.9, aqueous with cosolvent or surfactant or cyclodextrin, kinetic from dmso stock, HCO-60 0.2%; pH 6.9; read-out: Concentration (solubility of SUN N8075)
metric name: solubility at 30 min

>>> print(df.to_string())
                           substance_smiles           metric_name  recorded_measurement
0  Cc1cc(OC[C@@H](O)CN2CCN(c3ccc(Cc4ccc(F)cc4)cc3)CC2)c(C)c(C)c1N  solubility at 30 min             334 µg/mL

###

# experiment summary: Examination of solubilizing agent: solubility of SUN N8075 (Test example 1)
# Assay type: physicochemical
# recorded conditions: phosphate-buffered saline with solubilizing agent, 24 °C, pH 6.8, aqueous with cosolvent or surfactant or cyclodextrin, kinetic from dmso stock, Tween80 0.1%; pH 6.8; read-out: Concentration (solubility of SUN N8075)
# Description: 8 mg/mL aqueous solution of SUN N8075 was prepared. On the other hand, for each solubilizing agent, an aqueous solution having approximately 0.4% of solubilizing agent was prepared. 10 mL of SUN N8075 aqueous solution and 10 mL of solution of each solubilizing agent were mixed to give Mixture A, and Mixture A was filtered through a filter of 0.22 μm. 6.24 g of sodium dihydrogen phosphate and 16.4 g of sodium chloride were weighed and water was added to make the volume precisely 1,000 mL. […]
metric name: solubility at 30 min

>>> print(df.to_string())
                           substance_smiles  recorded_measurement
0  Cc1cc(OC[C@@H](O)CN2CCN(c3ccc(Cc4ccc(F)cc4)cc3)CC2)c(C)c(C)c1N             745 µg/mL
